Would you mind telling me the reported quantity of L-alanyl dipeptide produced from L-alanine methyl ester and test amino acid of each entry?
- System: His-Tag purified peptide-forming enzyme of Corynebacterium glutamicum strain ATCC 13286
- Procedure Summary: Study of substrate specificity using His-Tag purified enzyme
- Format: biochemical
- Condition Details: 100 mM L-alanine methyl ester hydrochloride, 150 mM test amino acid, enzyme 0.05 U/ml, pH 9.0, 3 hours, 25° C.
# number only, unit mM dropped from output

quantity of L-alanyl dipeptide produced from L-alanine methyl ester and test amino acid for NCCCC[C@H](N)C(=O)O is 7.91

quantity of L-alanyl dipeptide produced from L-alanine methyl ester and test amino acid for N[C@@H](CO)C(=O)O is 26.14

quantity of L-alanyl dipeptide produced from L-alanine methyl ester and test amino acid for CSCC[C@H](N)C(=O)O is 48.80

quantity of L-alanyl dipeptide produced from L-alanine methyl ester and test amino acid for N[C@@H](CCC(=O)O)C(=O)O [L-glutamate] is 1.11

quantity of L-alanyl dipeptide produced from L-alanine methyl ester and test amino acid for N[C@@H](Cc1ccccc1)C(=O)O is 16.13

quantity of L-alanyl dipeptide produced from L-alanine methyl ester and test amino acid for N=C(N)NCCC[C@H](N)C(=O)O is 24.87

quantity of L-alanyl dipeptide produced from L-alanine methyl ester and test amino acid for NCC(=O)O is 5.66

quantity of L-alanyl dipeptide produced from L-alanine methyl ester and test amino acid for O=C(O)[C@@H]1CCCN1 is 1.02

quantity of L-alanyl dipeptide produced from L-alanine methyl ester and test amino acid for C[C@@H](O)[C@H](N)C(=O)O is 24.23

quantity of L-alanyl dipeptide produced from L-alanine methyl ester and test amino acid for N[C@@H](Cc1c[nH]cn1)C(=O)O is 23.16

quantity of L-alanyl dipeptide produced from L-alanine methyl ester and test amino acid for N[C@@H](Cc1ccc(O)cc1)C(=O)O is 0.96

quantity of L-alanyl dipeptide produced from L-alanine methyl ester and test amino acid for CC(C)C[C@H](N)C(=O)O is 13.73

###

- Test system: His-Tag purified peptide-forming enzyme of Corynebacterium glutamicum strain ATCC 13286
- Procedure Summary: Study of substrate specificity using His-Tag purified enzyme
- Type: biochemical
- Condition Details: 100 mM L-alanine methyl ester hydrochloride, 150 mM test amino acid, enzyme 0.05 U/ml, pH 9.0, 3 hours, 25° C.
Quantity: quantity of L-alanyl dipeptide produced from L-alanine methyl ester and test amino acid (mM)
# number only, unit mM dropped from output

quantity of L-alanyl dipeptide produced from L-alanine methyl ester and test amino acid for N[C@@H](Cc1c[nH]c2ccccc12)C(=O)O is 15.31

quantity of L-alanyl dipeptide produced from L-alanine methyl ester and test amino acid for NC(=O)C[C@H](N)C(=O)O is 22.34

quantity of L-alanyl dipeptide produced from L-alanine methyl ester and test amino acid for C[C@H](N)C(=O)O is 10.63

###

- System: His-Tag purified peptide-forming enzyme of Corynebacterium glutamicum strain ATCC 13286
- Procedure Summary: Study of substrate specificity using His-Tag purified enzyme
- Format: biochemical
- Condition Details: 100 mM test amino acid methyl ester, 150 mM L-glutamine, enzyme 0.05 U/ml, pH 9.0, 3 hours, 25° C.
Residues, ends and D or L forms follow the SMILES beside them.
Returns: string. Value is 1 if measured quantity of dipeptide produced from test amino acid methyl ester and L-glutamine is below 7 mM, and 0 if it is greater than or equal to it.

Is quantity of dipeptide produced from test amino acid methyl ester and L-glutamine strictly under 7 mM for the entry CC[C@H](C)[C@H](N)C(=O)N[C@@H](CCC(N)=O)C(=O)O [L-isoleucyl-L-glutamine] (H-Ile-Gln-OH) ?
1

Is quantity of dipeptide produced from test amino acid methyl ester and L-glutamine strictly under 7 mM for the entry COC(=O)[C@@H](N)CCCNC(=N)N ?
1

Is quantity of dipeptide produced from test amino acid methyl ester and L-glutamine strictly under 7 mM for the entry COC(=O)CN ?
0

Is quantity of dipeptide produced from test amino acid methyl ester and L-glutamine strictly under 7 mM for the entry COC(=O)[C@@H](N)[C@@H](C)O ?
1

Is quantity of dipeptide produced from test amino acid methyl ester and L-glutamine strictly under 7 mM for the entry COC(=O)[C@@H](N)CC(=O)O ?
0

Is quantity of dipeptide produced from test amino acid methyl ester and L-glutamine strictly under 7 mM for the entry COC(=O)[C@@H](N)CCSC ?
1

Is quantity of dipeptide produced from test amino acid methyl ester and L-glutamine strictly under 7 mM for the entry COC(=O)[C@@H](N)CO ?
0

Is quantity of dipeptide produced from test amino acid methyl ester and L-glutamine strictly under 7 mM for the entry COC(=O)[C@@H](N)CCC(N)=O ?
1

Is quantity of dipeptide produced from test amino acid methyl ester and L-glutamine strictly under 7 mM for the entry COC(=O)[C@@H](N)C(C)C ?
1

Is quantity of dipeptide produced from test amino acid methyl ester and L-glutamine strictly under 7 mM for the entry COC(=O)[C@@H](N)Cc1ccc(O)cc1 ?
1

Hello, the source for this data is patent US7618796B2, in case you need it.
